Test system: Tobacco mosaic virus
Assay: Inhibitory activity against Tobacco mosaic virus (TMV) inoculated in Nicotiana tabacum L. cv.K326 leaf assessed as inhibition of virus multiplication at 0.2 mg/ml measured by leaf disk method (reference value: 0%)
Type: functional
ENDPOINT NAME: inhibition at 200 µg/mL (%)
Give a bare numeral; the unit % is implied.

Please fill in: inhibition at 200 µg/mL reported for COc1cc2oc3cccc(O)c3c(=O)c2c2c1[C@@H]1C=CO[C@@H]1O2 [ASPERXANTHONE] = 62.9

Please fill in: inhibition at 200 µg/mL reported for CCCCCCCCCCC/C=C/C=C/CCCC(=O)OCC(O)CO (centres undefined) = 14.9

Please fill in: inhibition at 200 µg/mL reported for `CCCCCCCCCCCCCCCCCCCCCCCCCC/C=C/C=C/C=C/CCC(=O)OC(CO)CO` = 13.9

Please fill in: inhibition at 200 µg/mL reported for `CCCCCCC/C=C/C=C/CCCC(=O)OC(CO)CO` = 14.2

Please fill in: inhibition at 200 µg/mL reported for CCCCCCCCCC/C=C/C=C/CCCC(=O)OCC(O)CO (centres undefined) = 12.5

Please fill in: inhibition at 200 µg/mL reported for `CCCCCCCC/C=C/C=C/CCCCCCCCCCCCCC/C=C/C=C/CCCC(=O)OC(CO)CO` = 14.3

Please fill in: inhibition at 200 µg/mL reported for `CCCCCCCC/C=C/C=C/CCCCCCCCCCCCCCCCCCCCCC(=O)OC(CO)CO` = 16.3

Please fill in: inhibition at 200 µg/mL reported for CCCCCCCC/C=C/C=C/CCCCCCCCCCCCCC/C=C/C=C/CCCC(=O)OCC(O)CO (centres undefined) = 17.4

Please fill in: inhibition at 200 µg/mL reported for Cc1c(O)c(-c2c(O)c(C)c3c(c2O)CO[C@H](C)[C@H]3C)c(O)c2c1[C@@H](C)[C@H](C)OC2 [ASPERBIPHENYL] = 35.5
